- assayed target: serotonin (5-HTT) reuptake site (Rattus norvegicus)
- Construct: from tissue; host or cells: rat frontal cortex membranes
- Sequence (P31652 whole entry): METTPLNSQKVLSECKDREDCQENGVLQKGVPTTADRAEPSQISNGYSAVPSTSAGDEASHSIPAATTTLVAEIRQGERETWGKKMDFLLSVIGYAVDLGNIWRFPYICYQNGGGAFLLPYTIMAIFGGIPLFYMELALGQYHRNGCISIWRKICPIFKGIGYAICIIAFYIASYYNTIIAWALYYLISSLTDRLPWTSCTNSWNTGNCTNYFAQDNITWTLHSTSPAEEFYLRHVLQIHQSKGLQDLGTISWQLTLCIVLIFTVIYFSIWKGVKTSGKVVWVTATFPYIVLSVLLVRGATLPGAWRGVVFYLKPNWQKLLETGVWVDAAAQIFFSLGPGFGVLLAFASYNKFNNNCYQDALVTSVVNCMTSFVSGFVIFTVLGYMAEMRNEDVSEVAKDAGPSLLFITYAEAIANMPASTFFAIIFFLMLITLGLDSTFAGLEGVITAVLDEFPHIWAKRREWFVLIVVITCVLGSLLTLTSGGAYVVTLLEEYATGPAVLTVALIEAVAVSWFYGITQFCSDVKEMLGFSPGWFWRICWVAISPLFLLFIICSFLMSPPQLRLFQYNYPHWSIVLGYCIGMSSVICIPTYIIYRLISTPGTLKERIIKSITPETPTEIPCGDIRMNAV
- test details: Affinity for serotonin reuptake sites in the rat ([3H]-citalopram competition)
- Format: binding
- test settings: rat frontal cortex membranes, read-out: pKi r5-HTT (converted)
Structures can show the parent of a compound that is named as a salt.
endpoint label: Ki (nM)
Value expressed in nM; do not type the unit.

compound	Ki / nM
CN(Cc1cc(Cl)cc(Cl)c1)C(=O)C1(N2CCNCC2)CCc2ccccc21 (racemic) [Example 85, dihydrochloride]	93.3
Cc1cc(C)cc(COCC2(N3CCNCC3)CCc3ccccc32)c1 (racemic) [Example 2, dihydrochloride]	53.7
CN(Cc1cc(F)cc(F)c1)C(=O)C1(N2CCNCC2)CCc2ccccc21 (racemic) [Example 68, dihydrochloride]	33.9
CN(Cc1cc(F)cc(Cl)c1)C(=O)C1(N2CCNCC2)Cc2ccccc2C1 [Example 135, dihydrochloride]	43.7
CN(Cc1cc(F)cc(C(F)(F)F)c1)C(=O)C1(N2CCNCC2)CCc2ccccc21 (racemic) [Example 69, dihydrochloride]	151
Fc1cc(F)cc(COCC2(N3CCNCC3)CCc3ccccc32)c1 (racemic) [Example 70, dihydrochloride]	3.24
Cc1cc(C)cc(COCC2(N3CCNCC3)Cc3ccccc3C2)c1 [Example 3, dihydrochloride]	63.1

Now for the compound whose Ki we want.
## Input What is its Ki for serotonin (5-HTT) reuptake site (Rattus norvegicus)? Entry: Brc1cc(Br)cc(COCC2(N3CCNCC3)CCc3ccccc32)c1 (racemic) [Example 1, dihydrochloride]
## Output 245

* * *

# log10 Ki listing for each entry below
- assayed target: human NK1 receptors (Homo sapiens, UniProt P25103)
- Construct: IM9 human lymphoblast cells endogenously expressing NK1 receptors; endogenous in cells; host or cells: IM9 human lymphoblast cells
- Sequence (P25103 whole entry): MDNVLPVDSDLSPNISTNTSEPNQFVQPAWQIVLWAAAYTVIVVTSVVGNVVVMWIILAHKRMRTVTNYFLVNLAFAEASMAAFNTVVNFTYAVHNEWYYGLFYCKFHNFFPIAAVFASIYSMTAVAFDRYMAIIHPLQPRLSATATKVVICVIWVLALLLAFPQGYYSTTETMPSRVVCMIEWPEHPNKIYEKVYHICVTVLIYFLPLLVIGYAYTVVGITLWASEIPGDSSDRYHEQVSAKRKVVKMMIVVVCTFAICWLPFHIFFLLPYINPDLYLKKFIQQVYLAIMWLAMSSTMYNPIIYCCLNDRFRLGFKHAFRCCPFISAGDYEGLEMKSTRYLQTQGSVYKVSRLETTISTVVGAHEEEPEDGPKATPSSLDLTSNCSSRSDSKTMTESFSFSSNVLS
- test details: hNK1 binding ([3H]-Substance P competition on IM9 human lymphoblast cells)
- test settings: read-out: pKi NK1 (converted)
Structures can show the parent of a compound that is named as a salt.
Field: value | Transform: log10 | Quantity: Ki | Unit: nM

Below, 5 compounds whose answers are already recorded.
compound	assayed target	endpoint label	recorded measurement
Cc1cc(C)cc(COCC2(N3CCNCC3)CCc3ccccc32)c1 (racemic) [Example 2, dihydrochloride]	human NK1 receptors (Homo sapiens, UniProt P25103)	log10 Ki	1.26
CN(Cc1cc(Cl)cc(Cl)c1)CC1(N2CCNCC2)Cc2ccccc2C1 [Example 79, trihydrochloride]	human NK1 receptors (Homo sapiens, UniProt P25103)	log10 Ki	2.71
CN(Cc1ccccc1)C(=O)C1(N2CCNCC2)CCc2ccccc21 (racemic) [Example 11, dihydrochloride]	human NK1 receptors (Homo sapiens, UniProt P25103)	log10 Ki	2.69
Cc1cc(C)cc(COCC2(N3CCNCC3)Cc3ccccc3C2)c1 [Example 3, dihydrochloride]	human NK1 receptors (Homo sapiens, UniProt P25103)	log10 Ki	2.21
O=C(NCc1cc(C(F)(F)F)cc(C(F)(F)F)c1)C1(N2CCNCC2)Cc2ccccc2C1 [Example 5, dihydrochloride]	human NK1 receptors (Homo sapiens, UniProt P25103)	log10 Ki	2.60

Now for the compound whose log10 Ki we want.
## Input Which log10 Ki value belongs to Brc1cc(Br)cc(COCC2(N3CCNCC3)CCc3ccccc32)c1 (racemic) [Example 1, dihydrochloride] ?
## Output 0.53
